- PROTOCOL TEXT: Mouse brain uptake assay (MBUA), 3 mg/kg IV, 0-1 h, 3 time points
- Type: in vivo, male CD1 mice
- CONDITION SET: male, CD1, mouse, brain/plasma, iv, 3 mg/kg
MEASURED QUANTITY: Kp
// no unit string in output, number only

Returns the measured Kp for the input compound. Input: Cc1cccnc1[C@@H]1CCC[C@H](c2nc3ccccc3n2CC2CCN(C)CC2)N1C
0.34

Next entry: Cc1cccnc1[C@@H]1CCC[C@H](c2nc3ccccc3n2CC2CCN(C(C)C)CC2)N1C
0.41

Subsequent entry: Cc1cccnc1[C@@H]1CCC[C@H](c2nc3cccc(N4CCN(C)CC4)c3[nH]2)N1
0.35

COc1cccnc1[C@@H]1CCC[C@H](c2nc3cccc(N4CCN(C)CC4)c3[nH]2)N1 , same question.
0.31

Okay, and CN1CCN(c2cccc3nc([C@H]4CCC[C@@H](c5ncccc5Cl)N4C)[nH]c23)CC1 ?
2.51

Please give the result for Cc1cccnc1[C@@H]1CCC[C@H](c2nc3cccc(N4CCN(C)C5(CC5)C4)c3[nH]2)N1 too.
1.66

Now consider CN1CCN(c2cccc3nc([C@H]4CCC[C@@H](c5ncccc5Cl)N4)[nH]c23)CC1 (racemic) and answer again.
1.23
